Molecular target: Structural capsid protein (Human immunodeficiency virus 1, UniProt Q76129)
Sequence (Q76129 whole entry, the tested form may be a part): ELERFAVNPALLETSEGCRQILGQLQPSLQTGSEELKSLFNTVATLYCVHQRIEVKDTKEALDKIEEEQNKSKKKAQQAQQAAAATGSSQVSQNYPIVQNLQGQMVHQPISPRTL
Assay: Binding affinity to HIV1 NL4-3 N-terminal domain capsid protein by surface plasmon resonance
Listed next: entries and their corresponding pKd.
Keep it numeric: pKd is minus log10 of the concentration in mol/L.

compound | pKd
COc1ccc(N(C)C(=O)[C@H](Cc2ccccc2)NC(=O)c2cn(Cc3ccc4ccccc4c3)nn2)cc1 | 4.49

response.value for COc1ccc(N(C)C(=O)[C@H](Cc2ccccc2)NC(=O)c2cn(C[S+]([O-])c3ccccc3)nn2)cc1 (some centres not stated) (field: pKd) = 4.55

###

Listed below: selectivity ratio values for each entry.
Assay: Selectivity index, ratio of CC50 for human MT4 cells to EC50 for Human immunodeficiency virus 1 NL4-3 infected in human MT4 cells
Assay type: toxicity, cell-based
Settings: read-out: Ratio CC50/EC50

Answered examples (3):
molecule | selectivity ratio
COc1ccc(N(C)C(=O)[C@H](Cc2ccccc2)NC(=O)c2cn(C[S+]([O-])c3ccccc3)nn2)cc1 (stereo partly specified) | > 2.91
COc1ccc(N(C)C(=O)[C@H](Cc2ccccc2)NC(=O)c2cn(Cc3ccccc3C)nn2)cc1 | > 2.58
COc1ccc(N(C)C(=O)[C@H](Cc2ccccc2)NC(=O)c2cn(Cc3ccc(C#N)cc3)nn2)cc1 | > 2.4

Value of selectivity ratio reported for the molecule COc1ccc(N(C)C(=O)[C@H](Cc2ccccc2)NC(=O)c2cn(Cc3cccc(C#N)c3)nn2)cc1 is > 2.36

Lab note: COc1ccc(N(C)C(=O)[C@H](Cc2ccccc2)NC(=O)c2cn(C3CC(n4cc(C)c(=O)[nH]c4=O)OC3CO)nn2)cc1 (stereo partly specified) gave selectivity ratio of > 1.59

Data point: COC(=O)c1cccc(-n2cc(C(=O)N[C@@H](Cc3ccccc3)C(=O)N(C)c3ccc(OC)cc3)nn2)c1 ; selectivity ratio = > 2.82
